# credit: the NIST ThermoML archive (doi:10.1021/je100377k)

SETTINGS: 328.15 K; 101.33 kPa; Liquid
PARAMETER: mass density (kg/m3)
The answer is to be given in kg/m3; state only the numeric part.

Solved entries (count: 3):
CCC[n+]1cccc(C)c1.O=S(=O)([N-]S(=O)(=O)C(F)(F)F)C(F)(F)F :: 1419.5
CCCCCCCC[n+]1cccc(C)c1 [1-octyl-3-methylpyridinium] :: 1303.7
CCCC[n+]1cccc(C)c1.O=S(=O)([N-]S(=O)(=O)C(F)(F)F)C(F)(F)F :: 1385.4

Query: Which mass density reading was recorded for the compound CCCCCC[n+]1ccccc1.O=S(=O)([N-]S(=O)(=O)C(F)(F)F)C(F)(F)F [1-hexylpyridinium bis(trifluromethylsulfonyl)imide] ?
Response: 1367.3

Query: Also need CCCC[n+]1ccc(C)cc1.O=S(=O)([N-]S(=O)(=O)C(F)(F)F)C(F)(F)F , thanks.
Response: 1384.4

Query: And the next one, CCCC[n+]1ccccc1.O=S(=O)([N-]S(=O)(=O)C(F)(F)F)C(F)(F)F [1-butylpyridinium bis[(trifluoromethyl)sulfonyl]imide] ?
Response: 1420.7
